system: Plasmodium berghei; experiment: Luciferase/luciferin-expressing antifolate-resistant parasites were used to infect a culture of HepG2 cells that were pre-incubated with compounds. Infected hepatocytes emit light due to the luciferase reaction. Assay results are presented as the percent inhibition of light emission compared to control. […]; assay type: functional; settings: sporozoite, HEPG2TOX_HILL_SLOPE 6.43, HEPG2TOX_R_SQUARED 0.485, PBLUC_HILL_SLOPE 2.92, PBLUC_R_SQUARED 0.738, read-out: LUCIFERASE INFECTION ASSAY - IC50

>  <chemical.smiles>
CC(C)(C)c1csc(Cc2ccc(-c3csnn3)cc2)n1

>  <uom>
µM

>  <IC50>
4.09

$$$$

These measurements were taken from ChEMBL document CHEMBL4483862.
